Numbers sourced from the RepoRT retention time repository (doi:10.1007/s11356-017-9929-x).

LC retention time values by entry
# protocolSummary: RP, GL Sciences Inertsil ODS-4, 150 × 2.1 mm, 3 µm, 40 °C, 0.3 mL/min, estimated dead time 1.1 min; A: water + 5 mM ammonium acetate; B: methanol + 5 mM ammonium acetate; gradient (min/%B) 0/5 30/95 50/95
# testConditions: stereoisomer not certain
Just the number in min, nothing appended.

Sample answers from the record:
{"compound": "CCCCNC(=O)NS(=O)(=O)c1ccc(C)cc1", "u": "min", "LC retention time": 19.6}
{"compound": "C#CC1(OC(C)=O)CCC2C3CCC4=CC(=NO)CCC4C3CCC21CC (stereo not drawn)", "u": "min", "LC retention time": 30.3}
{"compound": "CC(C(O)c1ccc(O)cc1)N1CCC(Cc2ccccc2)CC1 (stereo not drawn)", "u": "min", "LC retention time": 21}
{"compound": "CCOC(=O)CCN(SN(C)C(=O)Oc1cccc2c1OC(C)(C)C2)C(C)C", "u": "min", "LC retention time": 31.1}
{"compound": "CC(C)NCC(O)COc1cccc2ccccc12 (stereo not drawn)", "u": "min", "LC retention time": 21.8}

Param item = CCCCOC(=O)N(C)SN(C)C(=O)Oc1cccc2c1OC(C)(C)C2 ; retrieve measured LC retention time.
31.5

Param item = CC1CCCCC1NC(=O)Nc1ccccc1 (stereo not drawn) ; retrieve measured LC retention time.
25.6

Quick one: LC retention time of [2H]C([2H])([2H])NC(=O)Oc1cccc2c1OC(C)(C)C2 ?
20.5

Suppose we examine the compound COc1cc(C)c(Cc2cnc(N)nc2N)cc1OC ; what LC retention time value has been reported?
17.6

Please look up its LC retention time: COC(=O)c1ccc(CNS(C)(=O)=O)cc1S(=O)(=O)NC(=O)Nc1nc(OC)cc(OC)n1
17.4

====

Listed next: entries and their corresponding LC retention time.
# protocolSummary: RP, GL Sciences Inertsil ODS-4, 150 × 2.1 mm, 3 µm, 40 °C, 0.3 mL/min, estimated dead time 1.1 min; A: water + 5 mM ammonium acetate; B: methanol + 5 mM ammonium acetate; gradient (min/%B) 0/5 30/95 50/95
# testConditions: stereoisomer not certain
# unit: min | format: bare number

{"molecule": "CN(C)C(=O)Nc1cc(C(C)(C)C)on1", "LC retention time, min": 21.6}
{"molecule": "CON=C(C)c1cccc(Oc2nc(OC)cc(OC)n2)c1C(=O)OC", "LC retention time, min": 26.5}

Give the measured LC retention time of COCCc1ccc(OCC(O)CNC(C)C)cc1 (stereo not drawn) .
17.8

====

Entries annotated with measured LC retention time
# protocolSummary: RP, GL Sciences Inertsil ODS-4, 150 × 2.1 mm, 3 µm, 40 °C, 0.3 mL/min, estimated dead time 1.1 min; A: water + 5 mM ammonium acetate; B: methanol + 5 mM ammonium acetate; gradient (min/%B) 0/5 30/95 50/95
# testConditions: stereoisomer not certain
Express the result in min but write the number alone.

Example compounds with recorded LC retention time:
{"compound": "Cc1ccnc(NS(=O)(=O)c2ccc(N)cc2)n1", "u": "min", "LC retention time": 11.6}
{"compound": "Oc1ccc2nc(-c3cscn3)[nH]c2c1", "u": "min", "LC retention time": 16.1}
{"compound": "CCCC1CC(C(=O)NC(C(C)O)C2OC(SC)C(O)C(O)C2O)N(C)C1 (stereo not given)", "u": "min", "LC retention time": 21}
{"compound": "CCC1OC(=O)C(C)C(OC2CC(C)(OC)C(O)C(C)O2)C(C)C(OC2OC(C)CC(N(C)C)C2O)C(C)(O)CC(C)C(=O)C(C)C(O)C1(C)O (stereo not given)", "u": "min", "LC retention time": 25.5}

Now look at this one.
Look up LC retention time for this compound: CC1=CC(O)CC(=O)Cc2nc(co2)C(=O)N2CCC=C2C(=O)OC(C(C)C)C(C)C=CC(=O)NCC=C1 (stereo not given)
24.4
